// data source = PubChem BioAssay

- assay-summary: PSAC antagonists in infected red cells, primary screen, cell-based, P. falciparum Indochina, OD700, 1 h (AID 1154)
- test-context: P. falciparum Indochina infected RBC osmotic lysis, higher = more signal, called active from +8 up or from −8 down
Activity calls are given as the source filed them.
observation-type: z-score

• CC(C)CON=C1C[C@@H](O)[C@@H](O)[C@@H]2[C@@H]3C(=O)N(c4cccc(Oc5ccccc5)c4)C(=O)[C@@H]3CC[C@@H]12 = 2.34 (inactive)
• CCOC(=O)[C@H](Cc1ccccc1)NC(=O)CCC1CC(OC(=O)NCc2cccc3ccccc23)CC2(CCCC(COC(=O)NCC(c3ccccc3)c3ccccc3)O2)O1 (some centres undefined) = 9.16 (active)
• CCOC(=O)[C@H](Cc1ccccc1)NC(=O)CCC1CC(OC(=O)NCCc2ccc(F)cc2)CC2(CCCC(COC(=O)NCCCN3CCCC3=O)O2)O1 (some centres undefined) = -1.36 (inactive)
• CC(CCN1CCCc2nc(C)c(C)cc21)=NOC(C)CN1CCCCc2nc(C)c(C)cc21 (centres undefined) = 2.12 (inactive)

---

- assay-summary: osmotic lysis modulators in infected erythrocytes, primary screen, PSAC antagonist project, cell-based, P. falciparum Indochina, OD700, 3 h (AID 1156)
- test-context: higher = more signal, called active from +8 up or from −8 down
observation-type: z-score

• C=CC[C@@H]1C=C[C@H](ON=C[C@@H](C)[C@H](OCc2ccccc2)C(C)C)[C@@H](CO)O1 = -0.667
• COc1ccc(O[C@H]2C=C[C@@H](c3ccccc3)O[C@@H]2CON=C2[C@H]3CCn4c(=O)n(-c5ccccc5)c(=O)n4[C@H]3[C@H](O)[C@@H]3O[C@H]23)cc1 = 0.671
• CCOC(=O)[C@H](CC(C)C)NC(=O)CCC1CC(OC(=O)NCc2cccc3ccccc23)CC2(CCCC(COC(=O)NCCOc3ccccc3)O2)O1 (some centres not stated) = -2.05
• CCOC(=O)[C@H](CC(C)C)NC(=O)CCC1CC(OC(=O)NCc2cccc3ccccc23)CC2(CCCC(COC(=O)NCc3ccncc3)O2)O1 (some centres not stated) = -0.416
• CC(C)(C)N1C(=O)[C@H]2[C@H]3[C@H](O)[C@H](O)CC(=NOCc4ccccc4)[C@H]3CC[C@H]2C1=O = -0.408
• CCOC(=O)[C@H](CC(C)C)NC(=O)CCC1CC(OC(=O)NCc2cccc3ccccc23)CC2(CCCC(COC(=O)NCc3cccc(C(F)(F)F)c3)O2)O1 (some centres not stated) = 0.976
• CC(=O)OC[C@H]1OC(ON=CC[C@@H]2C=C[C@H](OC(C)=O)[C@@H](COC(C)=O)O2)[C@H](OC(C)=O)[C@@H](OC(C)=O)[C@@H]1OC(C)=O (some centres not stated) = 0.153

---

- assay-summary: CREB reporter modulators without forskolin, primary screen, cell-based, PC12, CRE-LacZ reporter, unstimulated (AID 1145)
- test-context: no forskolin, luminescence, 4.5 h, higher = more signal, called active from +8 up or from −8 down
Answer 0 (no) if z-score is under -0.3, and 1 (yes) if it is -0.3 or more.

• CON=C[C@@H](NS(=O)(=O)c1ccc(C)cc1)[C@H](C)C=CCC(=O)OC = 1 (yes)
• C#CCCCON=C1C[C@@H](O)[C@@H](O)[C@@H]2[C@@H]3C(=O)N(c4ccc(F)cc4F)C(=O)[C@@H]3CC[C@H]12 = 0 (no)
• CO[C@H]1COC(=O)[C@H](C)NC(=O)CC=C[C@@H](C)[C@H](OC)COC(=O)[C@@H](OCc2ccccc2)C=C[C@@H]1C = 1 (yes)
• CC(CCN1CCCc2nc(C)c(C)cc21)=NOC(C)CN1CCCCc2nc(C)c(C)cc21 (centres undefined) = 0 (no)
• O=C1C[C@@H](O)[C@@H](O)[C@@H]2[C@@H]3C(=O)N(Cc4ccccc4)C(=O)[C@@H]3CC[C@@H]12 = 1 (yes)
• Cc1cc2c(nc1C)CCCCN2CC(C)ON=C[C@@H](C)[C@H](OCc1ccccc1)C(C)C (some centres undefined) = 1 (yes)
• CCOC(=O)[C@H](Cc1ccccc1)NC(=O)CCC1CC(OC(=O)NCCc2ccc(F)cc2)CC2(CCCC(COC(=O)NCC3CCCCC3)O2)O1 (some centres undefined) = 1 (yes)
• CC(CCC(=O)OC[C@H]1O[C@H](C#Cc2ccccc2)C=C[C@@H]1Oc1ccc(C)cc1)=NO[C@H](C)c1cn([C@H](CO)Cc2ccccc2)nn1 = 1 (yes)
• CCOC(=O)NN=C1C[C@@H](O)[C@@H](O)[C@@H]2[C@@H]3C(=O)N([C@@H](C)c4ccccc4)C(=O)[C@@H]3CC[C@@H]12 = 0 (no)
• COC(=O)CC=C[C@@H](C)[C@@H](C=NO[C@H](C)c1cn([C@H](CO)Cc2ccccc2)nn1)NS(=O)(=O)c1ccc(C)cc1 = 1 (yes)
• O=C1[C@H]2[C@H]3[C@H](O)[C@H](O)CC(=NO[C@@H]4O[C@H](CO)[C@@H](O)[C@H](O)[C@H]4O)[C@H]3CC[C@H]2C(=O)N1c1cccc(Oc2ccccc2)c1 = 0 (no)
• COC(=O)CC=C[C@H](C)[C@@H](OCc1cccc(Br)c1)[C@@H](C)[C@H](OC)C1CCCCC1 = 0 (no)
• CCCNC(=O)OC[C@H]1O[C@H](CCON=C(C)CCN2CCc3nc(CC)c(CC)cc3C2)C=C[C@@H]1Oc1ccc(OC)cc1 = 1 (yes)
• CO[C@@H]1COC(=O)CC=C[C@H](C)[C@H](OC)COC(=O)[C@H](C)NC(=O)CC=C[C@H]1C = 1 (yes)
• O=C1[C@H]2[C@H]3[C@H](O)[C@H](O)CC(=NOC[C@@H](O)COCc4ccco4)[C@H]3CC[C@H]2C(=O)N1Cc1ccccc1 = 0 (no)
• CO[C@@H]1COC(=O)CC=C[C@@H](C)[C@H](OC)COC(=O)[C@@H](C)COC(=O)CC=C[C@H]1C = 1 (yes)
• CO[C@H]1COC(=O)CC=C[C@H](C)[C@@H](OC)COC(=O)[C@H](C)COC(=O)CC=C[C@@H]1C = 0 (no)
• COc1ccc(O[C@H]2C=C[C@@H](c3ccccc3)O[C@@H]2CON=C(C)CCN2CCc3nc(-c4ccccc4)c(-c4ccccc4)cc3C2)cc1 = 1 (yes)
• Cc1cc2c(nc1C)CCCCN2CC(C)ON=C1[C@H]2CCn3c(=O)n(-c4ccccc4)c(=O)n3[C@H]2[C@H](O)[C@@H]2O[C@H]12 (some centres undefined) = 0 (no)
• Cc1cc2c(c(=O)o1)[C@@H](O)[C@H]1O[C@H]1C2=O = 1 (yes)
• C=CC[C@@H]1C=C[C@H](ON=C2[C@H]3CCn4c(=O)n(-c5ccccc5)c(=O)n4[C@H]3[C@H](O)[C@@H]3O[C@H]23)[C@@H](CO)O1 = 1 (yes)
• CCOC(=O)C1=NO[C@@]2(C=C(Br)C3(OCCCO3)[C@H]3O[C@H]32)C1 = 1 (yes)
• CCOC(=O)[C@H](Cc1ccccc1)NC(=O)CCC1CC(OC(=O)NCc2ccc3c(c2)OCO3)CC2(CCCC(COC(=O)NCCC(C)C)O2)O1 (some centres undefined) = 1 (yes)
• O=C1C[C@@H](O)[C@@H](O)[C@@H]2[C@@H]3C(=O)N(C[C@@H]4CCCO4)C(=O)[C@@H]3CC[C@H]12 = 1 (yes)
• CC(C)=NOC[C@@H](C)[C@H](OCc1ccccc1)C(C)C = 1 (yes)
• CO[C@@H]1COC(=O)[C@@H](C)NC(=O)CC=C[C@@H](C)[C@H](NS(=O)(=O)c2ccc(C)cc2)COC(=O)[C@H](C)NC(=O)CC=C[C@H]1C = 1 (yes)
